target: Nuclear receptor coactivator 2 (Homo sapiens) (UniProt Q15596); experiment: SRC2 coactivator transcriptional activity inhibitors, confirmation, cell-based, luminescence, HEK293, triplicate (AID 652008); settings: HEK293 GAL4-SRC2 luciferase reporter, at 8.9 µM;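 note: 0% = DMSO-treated cells and 100% = Gossypol at 36 µM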
Sequence (Q15596 whole entry, looked up, the tested form may be a part): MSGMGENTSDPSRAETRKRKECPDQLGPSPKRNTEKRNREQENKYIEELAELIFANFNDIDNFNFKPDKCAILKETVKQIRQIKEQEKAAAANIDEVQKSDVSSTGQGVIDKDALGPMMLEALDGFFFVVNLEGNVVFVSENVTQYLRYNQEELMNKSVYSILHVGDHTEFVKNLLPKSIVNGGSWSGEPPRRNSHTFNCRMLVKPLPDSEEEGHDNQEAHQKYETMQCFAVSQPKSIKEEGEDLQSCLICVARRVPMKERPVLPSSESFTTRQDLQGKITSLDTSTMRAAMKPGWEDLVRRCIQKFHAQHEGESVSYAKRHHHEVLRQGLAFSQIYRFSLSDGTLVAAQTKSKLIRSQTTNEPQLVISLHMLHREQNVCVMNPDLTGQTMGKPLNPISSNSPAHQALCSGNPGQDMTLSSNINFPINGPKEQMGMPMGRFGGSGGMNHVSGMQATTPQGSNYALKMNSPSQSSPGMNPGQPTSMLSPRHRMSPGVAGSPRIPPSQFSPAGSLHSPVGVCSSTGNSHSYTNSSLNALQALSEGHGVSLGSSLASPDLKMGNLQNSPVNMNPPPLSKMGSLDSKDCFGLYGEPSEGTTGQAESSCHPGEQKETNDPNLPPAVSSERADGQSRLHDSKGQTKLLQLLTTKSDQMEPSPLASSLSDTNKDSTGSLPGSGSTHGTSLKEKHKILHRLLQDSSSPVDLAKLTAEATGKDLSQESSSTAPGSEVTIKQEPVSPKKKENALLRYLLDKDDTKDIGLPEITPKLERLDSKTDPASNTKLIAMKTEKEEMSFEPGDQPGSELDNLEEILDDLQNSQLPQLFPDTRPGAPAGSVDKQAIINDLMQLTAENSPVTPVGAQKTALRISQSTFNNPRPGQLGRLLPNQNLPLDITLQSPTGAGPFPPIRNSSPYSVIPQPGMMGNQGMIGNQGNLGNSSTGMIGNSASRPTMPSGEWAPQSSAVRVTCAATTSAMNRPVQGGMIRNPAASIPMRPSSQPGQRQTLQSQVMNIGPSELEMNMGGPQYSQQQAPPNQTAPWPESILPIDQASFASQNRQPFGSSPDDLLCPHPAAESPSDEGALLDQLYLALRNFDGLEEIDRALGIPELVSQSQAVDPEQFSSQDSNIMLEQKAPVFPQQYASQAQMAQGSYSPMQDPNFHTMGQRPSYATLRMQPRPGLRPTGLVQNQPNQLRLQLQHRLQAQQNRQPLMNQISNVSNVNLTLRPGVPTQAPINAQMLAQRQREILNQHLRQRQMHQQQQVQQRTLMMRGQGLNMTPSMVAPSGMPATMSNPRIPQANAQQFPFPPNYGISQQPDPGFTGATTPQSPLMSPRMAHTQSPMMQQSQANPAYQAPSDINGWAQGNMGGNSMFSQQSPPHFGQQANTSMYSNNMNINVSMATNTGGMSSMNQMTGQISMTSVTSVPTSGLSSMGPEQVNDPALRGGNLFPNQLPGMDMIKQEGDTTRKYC
Activity calls are given as the source filed them.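 Rule for the calls: active = mean inhibition above 46.5%, the solvent-only control mean plus 3 SD; inactive = the rest.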
Outcome codes: class 1 = active, class 0 = inactive

| compound | category label |
| --- | --- |
| CCOC(=O)c1[nH]c(=S)n(-c2ccccc2)c1C(=O)OCC | class 0 |
| Cc1cc(C(=O)CN2C(=O)C(=O)N(Cc3ccccc3)C2=O)c(C)n1-c1ccc2c(c1)OCCO2 | class 0 |
| COc1ccc(OCC(=O)Nc2ccc3c(c2)C(=O)NC3=O)cc1 | class 0 |
| Cc1c(CCC(=O)O)c(=O)oc2cc3oc4c(c3cc12)CCCC4 | class 1 |
| COc1cc(Cn2c3ccc(NC(=O)CC(C)c4ccccc4)cc3c(=O)n2C)ccc1F (stereo unspecified) | class 0 |
| CCOc1ccc(CC(=O)Nc2ccc(NC(=O)c3ccco3)cc2)cc1OCC | class 0 |
| CCC(C)(C)c1ccc(Oc2ccc(NC(=O)COC(=O)C3=COCCO3)cc2)cc1 | class 0 |
| CCCCCCCCN1C(=O)[C@H](CC(=O)NCCCC)C[C@@]2(C(=O)OCC)CCCC=C12 | class 0 |
| O=C(CSCC(=O)Nc1ccccc1)N/N=C/c1c(O)ccc2ccccc12 | class 0 |
| Cc1ccc(Nc2nc(N)nc(CN3CCN(Cc4ccc5c(c4)OCO5)CC3)n2)cc1 | class 0 |
| O=c1c(Br)ccc(Br)cc1Br | class 1 |
| COc1ccc(N(C(=O)CCl)C(C(=O)NCCc2ccccc2)c2cccs2)cc1 (stereo unspecified) | class 1 |
| COC(=O)C1=C(C)N(Cc2ccccc2C(F)(F)F)C(=NCc2ccccc2)NC1c1ccc(Cl)cc1 (stereo unspecified) | class 0 |
| CNC(=O)c1cc(Oc2ccc(NC(=O)Nc3ccc(Cl)c(C(F)(F)F)c3)cc2)ccn1 | class 1 |
| CCOC(=O)C1=C(COC(=O)CCOc2cc(C)ccc2C)NC(=O)NC1C (stereo unspecified) | class 0 |
| Cc1ccc(C#N)c(SCc2nnc(-c3ccc(Cl)cc3)o2)n1 | class 1 |
| CCCN1C=CC(=C2C(=O)c3ccccc3C2=O)C=C1 | class 1 |
| COc1cc(F)ccc1-c1csc(C(O)c2ccc(F)c(F)c2)n1 (stereo unspecified) | class 0 |
| CCCNC1=C(N(C(C)=O)c2cccc(F)c2)C(=O)c2ccccc2C1=O | class 0 |
| CN(C)c1ccc(CCc2ccc(N)cc2)cc1 | class 1 |
| CCCCC(NC(=O)CCc1c(C)c2cc3c4c(oc3c(C)c2oc1=O)CCCC4)C(=O)O (stereo unspecified) | class 0 |

====

Each record here notes measured inhibition.
biological target: Serine protease HTRA1 (Homo sapiens); assay: HTRA1 protease inhibitors, retest, confirmation, biochemical, fluorescence polarization (AID 540248); conditions: recombinant HTRA1, FP-rhodamine activity-based probe, at 5.96 µM, hits give high values;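 note: 0% = HTRA1 with DMSO and 100% = wells lacking HTRA1; inhibitors block probe binding so polarization drops and inhibition rises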
This is one part of the list. Calls of active or inactive are those of the source.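 Rule for the calls: active = mean inhibition over three repeats above a set limit taken from the earlier primary screen (cut at about 37% in these data); inactive = the rest.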
attribute measured: inhibition

| compound | target under test | result |
| --- | --- | --- |
| CCCN(CCC)C(=O)C1c2ccccc2Oc2ccccc21 | Serine protease HTRA1 (Homo sapiens) | -8.94% (inactive) |
| CSC(=S)N/N=C/c1c[nH]c2ccccc12 | Serine protease HTRA1 (Homo sapiens) | 33.3% (inactive) |
| CCc1ccc2c(c1)C1(NN=C(c3ccccc3)S1)C(=O)N2 (stereo unspecified) | Serine protease HTRA1 (Homo sapiens) | 63.9% (active) |
| Cc1cc(C(=O)N/N=C/c2ccc(O)c([N+](=O)[O-])c2)c(C)n1-c1ccc(F)cc1 | Serine protease HTRA1 (Homo sapiens) | 120% (active) |
| Cn1c(SCC(=O)N/N=C/c2ccc(O)c(O)c2)nc2ccccc21 | Serine protease HTRA1 (Homo sapiens) | 72.4% (active) |
| N#C/C(=C\c1ccc(O)c(O)c1)C(=O)NCc1ccccc1 | Serine protease HTRA1 (Homo sapiens) | 84.8% (active) |
| Clc1ccc(C2=CSC3=Nc4cccc5cccc(c45)N23)cc1 | Serine protease HTRA1 (Homo sapiens) | 13.7% (inactive) |
| c1ccc2[nH]c(-c3nc4ccccc4[nH]3)nc2c1 | Serine protease HTRA1 (Homo sapiens) | 58.4% (active) |
| Clc1ccccc1CSc1nnc(-c2ccco2)c(-c2ccco2)n1 | Serine protease HTRA1 (Homo sapiens) | 2.03% (inactive) |
| COc1ccc(NS(=O)(=O)c2cc(NC(=O)CC(=O)c3ccc([N+](=O)[O-])cc3)ccc2C)cc1 | Serine protease HTRA1 (Homo sapiens) | 28.7% (inactive) |
| O=c1ccc2c(-c3ccccc3S(=O)(=O)O)c3ccc(O)c(O)c3oc-2c1O | Serine protease HTRA1 (Homo sapiens) | -1.72% (inactive) |

Attribution: PubChem BioAssay
